Tested on: A549 cells
Structures can show the parent of a compound that is named as a salt. Residues, ends and D or L forms follow the SMILES beside them. *: point of attachment. Cbz = O=C(OCc1ccccc1)*; CH2F = FC*
result_type: Min. Viability (%)
Value expressed in %; do not type the unit.

>  <compound>
CCC(CC)COC(=O)[C@H](C)N[P@](=O)(OC[C@H]1O[C@@](C#N)(c2ccc3c(N)ncnn23)[C@H](O)[C@@H]1O)Oc1ccccc1

>  <Min. Viability (%)>
84.65

$$$$
>  <compound>
Nc1c(Br)cc(Br)cc1CN[C@H]1CC[C@H](O)CC1 [AMB, hydrochloride]

>  <Min. Viability (%)>
0.14

$$$$
>  <compound>
CC(C)C[C@H](NC(=O)OCc1ccccc1)C(=O)N[C@@H](CC(C)C)C(=O)N[C@@H](Cc1ccc(O)cc1)C(=O)CF [Calpain Inhibitor IV] (Cbz-Leu-Leu-Tyr-CH2F)

>  <Min. Viability (%)>
77.49

$$$$
>  <compound>
CC(C)C(=O)OC[C@H]1O[C@@H](n2ccc(NO)nc2=O)[C@H](O)[C@@H]1O

>  <Min. Viability (%)>
88.88

$$$$

Noted for CCN(CC)CCCC(C)Nc1ccnc2cc(Cl)ccc12 (centres unmarked) : its Min. Viability reads 9.11
